Readings of GI50 for the listed molecules
# System: EKVX
# procedure_text: NCI tumour cell line growth inhibition, 48 h
The source made the active and inactive calls. Rule as the data show it: active = GI50 up to about 1.1 µM and inactive = higher.
measure_name: GI50

molecule="Cc1ccc(C2=NN(C)COC2C(F)(F)F)cc1 (stereo not given)" study_target=EKVX measured="> 100 µM (inactive)"
molecule="CC(C)(C)C(=O)C(C(c1ccccc1)N1CCOCC1)N1CCOCC1 (stereo not given)" study_target=EKVX measured="> 100 µM (inactive)"
molecule="CC(C)(C)COC1C2(OCCO2)C2CCC1(C)C2(C)C (stereo not given)" study_target=EKVX measured="33.7 µM (inactive)"
molecule=O=C(O)CNCCc1ccccc1 study_target=EKVX measured="> 100 µM (inactive)"
molecule=Cc1occc(=O)c1O study_target=EKVX measured="> 100 µM (inactive)"
molecule=COC(=O)CCCN(C)c1nc(N)n[nH]1 study_target=EKVX measured="> 100 µM (inactive)"
molecule=O=C1O[C@H](c2ccc3c(c2)OCO3)[C@H]2CO[C@@H](c3ccc4c(c3)OCO4)[C@@H]12 study_target=EKVX measured="> 100 µM (inactive)"
molecule=C=CC(C)(C)/C=C/c1ccc(O)cc1 study_target=EKVX measured="45.3 µM (inactive)"
molecule=C/C(=C1/N=C(c2cc([N+](=O)[O-])ccc2Cl)N(c2cccc(C)c2)C1=O)c1cc2ccccc2oc1=O study_target=EKVX measured="> 100 µM (inactive)"
molecule=O=C(NN=C(c1ccccc1)c1ccccc1)/C(O)=C/C(=O)c1ccc(Cl)cc1 study_target=EKVX measured="30.7 µM (inactive)"
